Provenance of the data: the supplement of paper PMC11451515

# System: P12-Ichikawa
# ASSAY NAME: cell viability relative to DMSO control; higher = less cytotoxic
# TEST CONDITIONS: RPMI 5 mM glucose + 10% FBS; 48 h; 0.0632 µM
ASSAY ENDPOINT: cell viability (%)
Numbers only, in %.

// below: answered molecules
- MOLECULE: "N=C(CCSCc1csc(N=C(N)N)n1)N[S+](N)(=O)[O-]"
  TESTED TARGET: "P12-Ichikawa"
  ASSAY ENDPOINT: "cell viability"
  UNIT ABBREV: "%"
  REPORTED RESULT: 96.2
- MOLECULE: "[NH2][Pt]1([NH2])[O]CC(=O)[O]1"
  TESTED TARGET: "P12-Ichikawa"
  ASSAY ENDPOINT: "cell viability"
  UNIT ABBREV: "%"
  REPORTED RESULT: 104
- MOLECULE: "O=C(NCC[S+](=O)([O-])c1ccc(C(F)(F)F)cn1)c1ccc(Cl)cc1"
  TESTED TARGET: "P12-Ichikawa"
  ASSAY ENDPOINT: "cell viability"
  UNIT ABBREV: "%"
  REPORTED RESULT: 117
- MOLECULE: "NC[C@H]1CC[C@H](C(=O)O)CC1"
  TESTED TARGET: "P12-Ichikawa"
  ASSAY ENDPOINT: "cell viability"
  UNIT ABBREV: "%"
  REPORTED RESULT: 139
- MOLECULE: "C[C@H](NC(=O)/C(C#N)=C/c1cccc(Br)n1)c1ccccc1"
  TESTED TARGET: "P12-Ichikawa"
  ASSAY ENDPOINT: "cell viability"
  UNIT ABBREV: "%"
  REPORTED RESULT: 118

Parameters: items (list). Returns: cell viability for each item.
1. COC1=C(N2CCNC(C)C2)C(=CC3=C1N(\C=C(C(O)=O)/C3=O)C4CC4)F (stereo unspecified)
2. COC(=O)Nc1nc2cc(C(=O)c3cccs3)ccc2[nH]1
3. C[C@](O)(COc1ccc(C#N)cc1)C(=O)Nc1ccc(C#N)c(C(F)(F)F)c1
4. Cc1cc(OCCCc2c(C(=O)O)n(Cc3cccnc3)c3c(-c4c(COc5ccc(N6CCN([S+](C)(=O)[O-])CC6)cc5)nn(C)c4C)cccc23)cc(C)c1Cl
5. CC\1=C/C=C\C=[N]1[Pt](N)(Cl)Cl

Out:
1: 88.2; 2: 42.2; 3: 83.8; 4: 101; 5: 118
